- Test system: NCI-H23 lung
- MEASUREMENT DESCRIPTION: NCI tumour cell line growth inhibition, 48 h
List of TGI values.

MOLECULE: O=C1C(Br)=Cc2c(Cl)sc(Cl)c21
EXPERIMENTAL TARGET: NCI-H23 lung
TGI: 30.6 µM

MOLECULE: O=C(O)Cc1c[nH]c2ccc(F)cc12
EXPERIMENTAL TARGET: NCI-H23 lung
TGI: > 100 µM

MOLECULE: CCOC(=O)c1c(N)n(-c2ccccc2)c(=S)n(-c2ccccc2)c1=O
EXPERIMENTAL TARGET: NCI-H23 lung
TGI: > 100 µM

Return value of TGI for input OCc1c(-c2cccc3ccccc23)sc(-c2cccc3ccccc23)c1CO , no commentary. 30.1 µM

Return value of TGI for input O=C1C(C=NCCc2c[nH]c3ccccc23)C(C(F)(F)F)=NN1c1nc2ccccc2s1 (stereo unspecified) , no commentary. > 100 µM

Return value of TGI for input O=C(/C=C/c1cccs1)c1ccc(Cl)cc1 , no commentary. > 100 µM

Return value of TGI for input COC(c1ccc(C(C)(C)C)cc1)(c1ccc(C(C)(C)C)cc1)c1cc(C(O)(c2cc(C(OC)(c3ccc(C(C)(C)C)cc3)c3ccc(C(C)(C)C)cc3)c(C)cc2C)c2cc(C(OC)(c3ccc(C(C)(C)C)cc3)c3ccc(C(C)(C)C)cc3)c(C)cc2C)c(C)cc1C , no commentary. > 100 µM

Return value of TGI for input S=C1NCCN1C1=Nc2ccccc2CO1 , no commentary. > 100 µM

Return value of TGI for input CSc1c(C(=O)Nc2ccc(C)cc2)c(N)[nH]c(=O)c1C#N , no commentary. > 100 µM

Return value of TGI for input CCC1CCC2CCCC(C)N12 (stereo unspecified) , no commentary. > 100 µM

Return value of TGI for input N#CSCc1cccc(Nc2cc(=O)[nH]c(=O)[nH]2)c1 , no commentary. > 100 µM

Return value of TGI for input O=C1CC(c2ccc([N+](=O)[O-])cc2)C2(C(=O)NC(=S)NC2=O)C(c2ccc([N+](=O)[O-])cc2)C1 (stereo unspecified) , no commentary. 64.1 µM

Return value of TGI for input CCN(CCCN(CC)C(=O)N[C@@H](Cc1ccccc1)C(=O)NC)C(=O)N[C@@H](Cc1ccccc1)C(=O)NC , no commentary. > 100 µM
